# Lookup of reported Ki keyed by entry
# system tested: Recombinant heterodimeric HCV NS3/NS4A protease (strain 1a) (Hepatitis C virus genotype 1a, UniProt P27958)
# Sequence (P27958 1027-1657 limits assumed): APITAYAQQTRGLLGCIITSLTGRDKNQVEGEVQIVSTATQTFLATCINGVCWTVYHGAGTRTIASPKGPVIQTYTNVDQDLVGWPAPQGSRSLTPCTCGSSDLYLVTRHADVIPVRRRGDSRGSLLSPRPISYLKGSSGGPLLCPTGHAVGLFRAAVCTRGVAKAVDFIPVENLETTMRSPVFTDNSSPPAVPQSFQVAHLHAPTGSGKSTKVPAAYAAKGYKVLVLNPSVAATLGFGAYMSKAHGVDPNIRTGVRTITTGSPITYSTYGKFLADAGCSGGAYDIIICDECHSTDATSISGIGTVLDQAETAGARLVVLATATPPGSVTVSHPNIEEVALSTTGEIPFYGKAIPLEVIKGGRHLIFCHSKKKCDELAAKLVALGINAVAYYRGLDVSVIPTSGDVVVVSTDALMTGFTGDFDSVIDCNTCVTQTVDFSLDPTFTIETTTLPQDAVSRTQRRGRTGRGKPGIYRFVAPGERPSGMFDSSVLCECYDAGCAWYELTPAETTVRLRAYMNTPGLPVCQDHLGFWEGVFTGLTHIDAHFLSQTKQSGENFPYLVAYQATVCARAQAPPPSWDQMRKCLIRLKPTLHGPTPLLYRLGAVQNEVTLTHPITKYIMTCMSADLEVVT
# Sequence (P27958 1658-1711 partner limits assumed): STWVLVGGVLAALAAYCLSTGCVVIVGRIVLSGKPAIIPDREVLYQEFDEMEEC
# assay remarks: biochemical
*1 amine or outer side, *2 acyl side, *3 side chain or, on linkers, in order; H or OH if unused. Where a SMILES comes first, the peptide text is derived from it. Bridges are numbered along the chain shown (N, C = ends). [ ]: non-standard residue; d: D form. Glutaryl = O=C(CCCC(=O)[*:2])[*:1]; X1 = CCCC(N[*:1])C(=O)C(=O)[*:2]; Chg = N[C@H](C(=O)O)C1CCCCC1; Phg = N[C@H](C(=O)O)c1ccccc1

Please review the following examples before continuing.
compound="CCCC(NC(=O)[C@@H]1Cc2cccc(c2)C=CCCCCCC(=O)N[C@@H](C2CCCCC2)C(=O)N1)C(=O)C(=O)NCC(=O)N[C@H](C(=O)O)c1ccccc1 (stereo partly drawn)" result="0.001 to 1 µM"
compound="CCCC(NC(=O)[C@@H]1CCCCNC(=O)CCCC(=O)N[C@H](CCC(=O)O)C(=O)N[C@@H](C2CCCCC2)C(=O)N1)C(=O)C(=O)NCC(=O)N[C@H](C(N)=O)c1ccccc1 (stereo partly drawn) [Example 48] ([dE][Chg]K[X1]G[Phg]-NH2; linker N-3 via Glutaryl)" result="1.1 to 100 µM"

Now for another entry.
Query: Ki; subject: CCCC(NC(=O)[C@H]1Cc2cccc(c2)Oc2ccc(cc2)CCC(=O)N[C@@H](C2CCCCC2)C(=O)O1)C(=O)C(=O)NCC(=O)N[C@H](C(=O)OC(C)(C)C)c1ccccc1 (stereo partly drawn)
1.1 to 100 µM

* * *

# system tested: Recombinant heterodimeric HCV NS3/NS4A protease (strain 1a) (Hepatitis C virus genotype 1a)
# assay remarks: biochemical
*1 amine or outer side, *2 acyl side, *3 side chain or, on linkers, in order; H or OH if unused. Where a SMILES comes first, the peptide text is derived from it. Bridges are numbered along the chain shown (N, C = ends). [ ]: non-standard residue; d: D form. Heptanedioyl = O=C(CCCCCC(=O)[*:2])[*:1]; X1 = CCCC(N[*:1])C(=O)C(=O)[*:2]; Chg = N[C@H](C(=O)O)C1CCCCC1; Phg = N[C@H](C(=O)O)c1ccccc1; Suc = O=C(CCC(=O)[*:2])[*:1]
measured attribute: Ki

Please review the following examples before continuing.
molecule="CCCC(NC(=O)[C@@H]1Cc2cccc(c2)OCCCCCC(=O)N[C@@H](C2CCCCC2)C(=O)N1)C(=O)C(=O)NCC(=O)N[C@H](C(=O)OC(C)(C)C)c1ccccc1 (stereo partly shown)" result="1100 to 100000 nM"
molecule="CCCC(NC(=O)C1Cc2cccc(c2)OCCCCCCOC(=O)NC(C2CCCCC2)C(=O)N1)C(=O)C(=O)NCC(=O)N[C@H](C(=O)N(C)C)c1ccccc1 (stereo partly shown)" result="1 to 1000 nM"

Query: Ki; subject: CCCC(NC(=O)[C@@H]1CCCCNC(=O)CCC(=O)N[C@H](CCC(=O)O)C(=O)N[C@@H](C2CCCCC2)C(=O)N1)C(=O)C(=O)NCC(=O)N[C@H](C(N)=O)c1ccccc1 (stereo partly shown) [Example 47] ([dE][Chg]K[X1]G[Phg]-NH2; linker N-3 via Suc)
1100 to 100000 nM

Query: Ki; subject: CCCC(NC(=O)[C@@H]1CCCCNC(=O)CCCCCC(=O)N[C@@H](C2CCCCC2)C(=O)N1)C(=O)C(=O)NCC(=O)N[C@H](C(N)=O)c1ccccc1 (stereo partly shown) [Example 53] ([Chg]K[X1]G[Phg]-NH2; linker N-2 via Heptanedioyl)
1 to 1000 nM

Query: Ki; subject: CCCC(NC(=O)C1Cc2cccc(c2)Oc2ccc(cc2)CCC(=O)NCC(=O)N1)C(=O)C(=O)NCC(=O)NC(C(=O)O)c1ccccc1 (stereo not shown)
1100 to 100000 nM

Query: Ki; subject: CCCC(NC(=O)[C@@H]1Cc2cccc(c2)Oc2ccc(cc2)CC(NC(C)=O)C(=O)N[C@@H](C2CCCCC2)C(=O)N1)C(=O)C(=O)NCC(=O)O (stereo partly shown)
1100 to 100000 nM

Query: Ki; subject: CCCC(NC(=O)[C@@H]1Cc2cccc(c2)OCCCCCNC(=O)N[C@@H](C2CCCCC2)C(=O)N1)C(=O)C(=O)NCC(=O)N[C@H](C(=O)O)c1ccccc1 (stereo partly shown)
1 to 1000 nM

Query: Ki; subject: CCCC(NC(=O)C1Cc2cccc(c2)Oc2ccc(cc2)CC(NC(=O)OC(C)(C)C)C(=O)NC(C2CCCCC2)C(=O)N1)C(=O)C(=O)NCC(=O)O (stereo not shown)
1100 to 100000 nM
